System: TK-10 renal
method: NCI tumour cell line growth inhibition, 48 h; in the data active = GI50 below about 0.43 µM; inactive = the rest
I would appreciate it if you answered using one of these outcomes: active, inactive

Examples with answers:
Recorded call for "CN(C)CCC(N)(P(=O)([O-])[O-])P(=O)([O-])[O-].N.N.[Pt+2]" ?
inactive

Would you mind telling me which call this test gave "C[C@@H]1CN2[C@H]3[C@@H]1CC[C@]31CCC(=O)O[C@]1(C)[C@H]1CC[C@H]3CCC=C3[C@@H]12" ?
inactive

Which outcome did this test record for the compound "Cn1ncnc1[C@@H]1c2n[nH]c(=O)c3cc(F)cc(c23)N[C@H]1c1ccc(F)cc1" ?
inactive

Others:
What classification did "Cc1cc(I)cc(CNCCN(C)C)c1O" end up with in this test?
inactive

Each compound tested received a call. Report the one for "COC(=O)[C@@H](C)C[C@H](Cc1ccccc1)NC(=O)c1nc([C@@H](C[C@H](C(C)C)N(C)C(=O)[C@@H](NC(=O)[C@H]2C[C@H](O)CCN2C)C(C)C)OC(C)=O)sc1C(C)C" .
active

Answer briefly: the call reported for "COc1cc2cc(NCc3cccc(Cl)c3)nc(C)c2cc1OC" in this assay.
inactive

###

In this section we review reported TGI values for a set of compounds.
Test system: RPMI-8226 leukemia
method: NCI tumour cell line growth inhibition, 48 h

Consider the worked cases shown below.
Using the record for CC(C)=CCc1cc2c(cc1O)C1=C(C(=O)C3=C(NCCS3(=O)=O)C1=O)C(C=C(C)C)O2 (configuration not stated) , state its measured TGI.
> 16.7 µM

State, in one line, measured TGI of "CCN(CC)CC(=O)NC1c2ccccc2Oc2ccccc21"
> 100 µM

Specify reported TGI for the compound shown: "CC1(C)N=C(N)N=C(N)N1c1ccc(OCCCNC(=O)Nc2ccc(S(=O)(=O)F)cc2)c(Cl)c1"
> 75 µM

Please supply the value of reported TGI for the item "Cn1cc(C2=C(c3ccsc3)C(=O)NC2=O)c2ccccc21"
> 25 µM

State its TGI: "O=C(O)/C=C\C(=O)Nc1ccc2c(c1)-c1ccccc1C2"
> 100 µM

Given the compound COc1ccc(C(=O)C(C(=O)CCC(=O)Nc2ccc(Cl)c(Cl)c2)c2ccc(OC)cc2)cc1 (configuration not stated) , write its reported TGI.
> 100 µM

Give TGI for the following compound: "CC(C)(C)C(=O)/C=C(\OB(F)F)C(C)(C)C"
> 100 µM

Tell us which TGI value is on record for "Cc1ccc(S(=O)(=O)NNC(=O)Nc2cccc(C(F)(F)F)c2)cc1"
> 100 µM

Using known records, supply TGI for "COc1cc(/C=C/C(=O)c2cccc(-n3cc(-c4ccccc4)[nH]c3=O)c2)cc(OC)c1OC"
> 100 µM

Respond only with TGI recorded for "CC(C)(C)CC(C)(C)c1ccc(OCCO)cc1"
19.5 µg/mL

Next:
Tell us which TGI value is on record for N#CC(C(=O)CCCC(=O)Nc1ccccc1[N+](=O)[O-])c1c(Cl)cccc1Cl (configuration not stated)
> 100 µM

Retrieve TGI measured for "O=C(O)CN1CCSc2ccccc2CN(CC(=O)O)CCSc2ccccc2C1" and print it.
> 100 µM

###

Measured TGI values are reported for all entries that follow.
System: A549 NSCLC
method: NCI tumour cell line growth inhibition, 48 h

Guide cases for TGI, answers given:
Give a short answer stating reported TGI for CC(=O)OCC1OC(n2c3c(c(-c4ccc(C)cc4)c(C#N)c2=S)C(=O)CC(C)(C)C3)C(OC(C)=O)C(OC(C)=O)C1OC(C)=O (stereo unspecified) .
> 100 µM

Find the measured TGI of "CCOC(=O)c1nc2ccccc2nc1Oc1cc(OC)cc(OC)c1" and report it.
> 100 µM

Given the molecule CN(C)CC1CC/C(=C\c2ccc(Cl)c(Cl)c2)C1=O (stereo unspecified) , write its reported TGI.
> 100 µM

Supply reported TGI belonging to this molecule: "Nc1ccc(/C=C/c2ccc3ncccc3c2)cc1"
> 100 µM

Look up TGI of NCCCCCC(CCN)SCC1OC(n2cnc3c(N)ncnc32)C(O)C1O (stereo unspecified) and report it.
> 1500 µM

Now let's try a different one.
Read off the recorded TGI for CC(C)=CCc1cc2c(cc1O)C1=C(C(=O)C3=C(NCCS3(=O)=O)C1=O)C(C=C(C)C)O2 (stereo unspecified)
> 16.7 µM
